test_system: recombinant human or murine heat shock protein 70 (hsp70) (human or murine)
Sequence (A8K5I0 entry or part of it): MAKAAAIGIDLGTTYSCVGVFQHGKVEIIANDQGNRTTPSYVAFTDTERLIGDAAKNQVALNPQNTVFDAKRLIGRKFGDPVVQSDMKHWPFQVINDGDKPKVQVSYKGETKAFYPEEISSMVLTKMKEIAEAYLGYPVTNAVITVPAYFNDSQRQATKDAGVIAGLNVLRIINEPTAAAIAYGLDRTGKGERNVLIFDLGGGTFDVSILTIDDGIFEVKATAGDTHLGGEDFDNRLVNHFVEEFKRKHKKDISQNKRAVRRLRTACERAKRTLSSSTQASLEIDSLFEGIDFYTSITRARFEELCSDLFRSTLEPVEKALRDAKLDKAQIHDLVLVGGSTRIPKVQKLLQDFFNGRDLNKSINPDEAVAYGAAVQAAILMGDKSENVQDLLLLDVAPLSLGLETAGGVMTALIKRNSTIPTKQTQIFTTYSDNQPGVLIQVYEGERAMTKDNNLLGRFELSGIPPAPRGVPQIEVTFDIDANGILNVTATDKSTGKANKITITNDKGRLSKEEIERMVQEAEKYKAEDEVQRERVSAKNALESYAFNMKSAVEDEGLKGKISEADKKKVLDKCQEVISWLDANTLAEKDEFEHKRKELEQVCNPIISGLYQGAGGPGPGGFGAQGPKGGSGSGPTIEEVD
assay_text: binding inhibition assay (Hill plot) against labeled reference hybrid antigen on hsp70
measured_quantity: Kd (nM)
Quick note: give the figure in nM, leave out the unit.

Examples with their reported Kd follow.
>>> result("NLLRLTGWGSGSIINFEKL")
1600
>>> result("SIINFEKL [SIINFEKL (ovalbumin amino acids 257-264)]")
235000
>>> result("NLLRLTGWFFRKSIINFEKL")
2200

## Input Sample NLLRLTGWRKSIINFEKL — what was its Kd?
## Output 800
